Target: Hemoglobin HbA (Homo sapiens) (UniProt P69905+P68871)
Sequence (P68871 2-147 partner limits assumed): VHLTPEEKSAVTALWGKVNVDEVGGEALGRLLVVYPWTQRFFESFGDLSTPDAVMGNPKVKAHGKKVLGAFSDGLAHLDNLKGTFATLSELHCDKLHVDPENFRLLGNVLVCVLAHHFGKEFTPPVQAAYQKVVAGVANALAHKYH
Sequence (P69905 2-142 limits assumed): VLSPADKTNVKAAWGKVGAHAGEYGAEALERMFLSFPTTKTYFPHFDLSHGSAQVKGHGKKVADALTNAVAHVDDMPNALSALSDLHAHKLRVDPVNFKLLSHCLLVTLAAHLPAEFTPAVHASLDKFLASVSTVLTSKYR
Experiment: Ratio of P50e to P50c (P50 control value with no effector present, 5 mmHg)
Assay type: functional
Record TRUE whenever P50e/P50c is at 2 or higher; record FALSE when lower.

Assess whether reported P50e/P50c for Cc1cc(Cl)cc(NC(=O)Cc2ccc(OC3(C(=O)O)CCC(C)C3)cc2)c1 (centres undefined) sits at 2 or higher. TRUE

Assess whether reported P50e/P50c for `Cc1cc(C)cc(NC(=O)Cc2ccc(OC3(C(=O)O)CCOCC3)cc2)c1` sits at 2 or higher. FALSE

Assess whether reported P50e/P50c for CCCCC(Oc1ccc(CC(=O)Nc2cc(C)cc(C)c2)cc1)C(=O)O (centres undefined) sits at 2 or higher. TRUE

====

Listed below: Hill coefficient (n50) values for each entry.
Experiment: Hill coefficient at 50% saturation in the presence of effector

Use the examples below as a reference point.
{"compound": "CC(Oc1ccc(CC(=O)Nc2ccc3c(c2)CCC3)cc1)C(=O)O (centres undefined)", "Hill coefficient (n50)": 2.7}
{"compound": "Cc1cc(C)cc(NC(=O)Cc2ccc(OC3(C(=O)O)CCOC3C)cc2)c1 (centres undefined)", "Hill coefficient (n50)": 2.4}
{"compound": "CCC(C)(Oc1ccc(CC(=O)Nc2cc(C)cc(C)c2)cc1)C(=O)O (single isomer, unassigned; (+))", "Hill coefficient (n50)": 2.4}
{"compound": "CCCC(C)(Oc1ccc(CC(=O)Nc2cc(C)cc(C)c2)cc1)C(=O)O (centres undefined)", "Hill coefficient (n50)": 2.7}
{"compound": "Cc1cc(C)cc(NC(=O)Cc2ccc(OC3(C(=O)O)CCC(C)C3)cc2)c1 (centres undefined)", "Hill coefficient (n50)": 2.5}

// `Cc1cc(C)cc(NC(=O)Cc2ccc(O[C@]3(C(=O)O)CCO[C@H]3C)cc2)c1` : Hill coefficient (n50) value = 2.6

// CCC(Oc1ccc(CC(=O)Nc2cc(C)cc(C)c2)cc1)C(=O)O (single isomer, unassigned; (-)) : Hill coefficient (n50) value = 2.8

// Cc1cc(Cl)cc(NC(=O)Cc2ccc(OC3(C(=O)O)CCC(C)C3)cc2)c1 (centres undefined) : Hill coefficient (n50) value = 2.4

// `Cc1cc(C)cc(NC(=O)Cc2ccc(OC3(C(=O)O)CCOCC3)cc2)c1` : Hill coefficient (n50) value = 2.4

====

Molecular target: Hemoglobin HbA (Homo sapiens) (UniProt P69905+P68871)
Assay: Oxygen pressure at which hemoglobin is 50% saturated with oxygen in the presence of the effector.
Type: functional
Listed below: P50e values for each entry.
Kindly answer with a numeric value in mmHg, unit omitted.

Use the examples below as a reference point.
{"compound": "CCC(Oc1ccc(CC(=O)Nc2cc(C)cc(C)c2)cc1)C(=O)O (single isomer, unassigned; (-))", "P50e, mmHg": 9.8}
{"compound": "COCC(C)(Oc1ccc(CC(=O)Nc2cc(C)cc(C)c2)cc1)C(=O)O (stereo not drawn)", "P50e, mmHg": 8.4}
{"compound": "CCC(C)(Oc1ccc(CC(=O)Nc2cc(C)cc(C)c2)cc1)C(=O)O (single isomer, unassigned; (+))", "P50e, mmHg": 17.4}
{"compound": "Cc1cc(C)cc(NC(=O)Cc2ccc(OC(C)C(=O)O)cc2)c1 (single isomer, unassigned; (+))", "P50e, mmHg": 9.8}
{"compound": "CC1CCC(Oc2ccc(CC(=O)Nc3ccc4c(c3)CCC4)cc2)(C(=O)O)C1 (stereo not drawn)", "P50e, mmHg": 12.7}
{"compound": "CCC(Oc1ccc(CC(=O)Nc2cc(C)cc(C)c2)cc1)C(=O)O (stereo in doubt; 32)", "P50e, mmHg": 13}

// assay Hemoglobin HbA (Homo sapiens) (UniProt P69905+P68871), entry Cc1cc(C)cc(NC(=O)Cc2ccc(OC3(C(=O)O)CCCC3C)cc2)c1 (racemic) , P50e value = 21.6

// assay Hemoglobin HbA (Homo sapiens) (UniProt P69905+P68871), entry `Cc1cc(C)cc(NC(=O)Cc2ccc(OC(C)(C)C(=O)O)cc2)c1` , P50e value = 23.4
